Experiment: Permeability of the compound in PBS/EtOH buffer (70:30) incubated for 18 hrs by UV plate reader based PAMPA assay
Type: ADME
Settings: read-out: permeability
Each item that follows carries a reported Papp at 18 h.
Write it as a number; the unit ×10⁻⁶ cm/s goes unstated.

Worked examples follow.
COMPOUND	Papp at 18 h [×10⁻⁶ cm/s]
COc1cc2nc(-c3ccc(C)o3)cc(NCC3CCC(C(=O)NO)CC3)c2cc1OC (stereo unspecified)	0.393
COc1cc2c(NC3CCN(c4ccc(C(=O)NO)cc4)CC3)cc(-c3ccc(C)o3)nc2cc1OCCCN1CCCC1	0.014

Would you kindly look at the next entry?
Fill in Papp at 18 h for record COc1cc2c(NCc3ccc(-c4ccc(C(=O)NO)cc4)cc3)cc(-c3ccc(C)o3)nc2cc1OCCCN1CCCC1 0.11

====

Test: Intrinsic clearance in mouse pooled hepatocytes
Type: ADME, cell-based, Hepatocyte
Conditions: read-out: CLH
METRIC: CLint scaled (mL/min/kg)
Write it as a number; the unit mL/min/kg goes unstated.

Fill in CLint scaled for record COc1cc2nc(-c3ccc(C)o3)cc(NCC3CCN(c4ncc(C(=O)NO)cn4)CC3)c2cc1OC 411

====

Tested on: THLE-2
Assay: Cytotoxicity against human THLE-2 cells assessed as decrease in cell viability measured after 72 hrs by Vialight-plus cell proliferation assay
Format: cell-based
Conditions: thle-2, 72 h
Each item that follows carries a reported pLC50.
Output: the number by itself.

Worked examples follow.
MOLECULE	TARGET OR TEST SYSTEM	METRIC	RESULT NUMBER
COc1cc2c(NC3CCN(C)CC3)cc(-c3ccc(C)o3)nc2cc1OCCCN1CCCC1	THLE-2	pLC50	5.75
COc1cc2nc(-c3ccc(C)o3)cc(NCC3CCN(c4ncc(C(=O)NO)cn4)CC3)c2cc1OC	THLE-2	pLC50	6.1
COc1cc2nc(-c3ccc(C)o3)cc(NCC3CCC(C(=O)NO)CC3)c2cc1OC (centres undefined)	THLE-2	pLC50	5.02
COc1cc2nc(-c3ccc(C)o3)cc(NC3CCN(c4ncc(C(=O)NO)cn4)CC3)c2cc1OC	THLE-2	pLC50	5.51
COc1cc2nc(-c3ccc(C)o3)cc(NCC3CCN(Cc4ccc(C(=O)NO)s4)CC3)c2cc1OC	THLE-2	pLC50	5.65

Fill in pLC50 for record COc1cc2c(NCC3CCN(C)CC3)cc(-c3ccc(C)o3)nc2cc1OCCCN1CCCC1 5.89

Fill in pLC50 for record COc1cc2c(NCC3CCN(c4ncc(C(=O)NO)cn4)CC3)cc(-c3ccc(C)o3)nc2cc1OCCCN1CCCC1 4.96

Fill in pLC50 for record COc1cc2c(NC3CCN(c4ccc(C(=O)NO)cc4)CC3)cc(-c3ccc(C)o3)nc2cc1OCCCN1CCCC1 5.18

Fill in pLC50 for record COc1cc2c(NCc3ccc(-c4ccc(C(=O)NO)cc4)cc3)cc(-c3ccc(C)o3)nc2cc1OCCCN1CCCC1 4.87

Fill in pLC50 for record COc1cc2nc(-c3ccc(C)o3)cc(NCC3CCN(Cc4ccc(C(=O)NO)cc4)CC3)c2cc1OC 6.69

Fill in pLC50 for record COc1cc2c(NCC3CCN(c4ccc(C(=O)NO)cc4)CC3)cc(-c3ccc(C)o3)nc2cc1OCCCN1CCCC1 5.01

Fill in pLC50 for record COc1cc2c(NC3CCN(Cc4ccc(C(=O)NO)cc4)CC3)cc(-c3ccc(C)o3)nc2cc1OCCCN1CCCC1 4.66

Fill in pLC50 for record COc1cc2c(NCC3CCN(Cc4ccc(C(=O)NO)cc4)CC3)cc(-c3ccc(C)o3)nc2cc1OCCCN1CCCC1 5.41

====

Assay: Kinetic solubility of the compound
Type: physicochemical
Conditions: read-out: Kinetic_solubility
METRIC: solubility kinetic

Fill in solubility kinetic for record COc1cc2nc(-c3ccc(C)o3)cc(NCC3CCN(c4ncc(C(=O)NO)cn4)CC3)c2cc1OC < 0.987 µg/mL

====

Molecular target: CYP2C19 (Homo sapiens, UniProt P33261)
Sequence (P33261 whole entry): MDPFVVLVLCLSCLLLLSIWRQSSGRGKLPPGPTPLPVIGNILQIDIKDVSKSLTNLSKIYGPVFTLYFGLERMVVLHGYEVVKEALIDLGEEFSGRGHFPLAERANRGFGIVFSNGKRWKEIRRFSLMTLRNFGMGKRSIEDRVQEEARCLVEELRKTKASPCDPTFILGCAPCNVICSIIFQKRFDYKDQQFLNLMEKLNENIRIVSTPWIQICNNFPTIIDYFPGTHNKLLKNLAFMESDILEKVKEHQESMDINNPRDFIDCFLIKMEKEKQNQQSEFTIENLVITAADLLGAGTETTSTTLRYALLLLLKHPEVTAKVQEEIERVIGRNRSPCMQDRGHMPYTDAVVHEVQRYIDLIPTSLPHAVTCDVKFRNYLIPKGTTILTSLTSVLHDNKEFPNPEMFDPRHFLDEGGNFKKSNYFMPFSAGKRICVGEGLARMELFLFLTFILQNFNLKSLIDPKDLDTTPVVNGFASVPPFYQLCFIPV
Assay: Inhibition of CYP2C19 in human liver microsomes at 10 uM incubated for 10 mins in presence of NADPH by LC-MS/MS analysis relative to control
Assay type: ADME
METRIC: inhibition at 10 min, 10 µM (%)
Write it as a number; the unit % goes unstated.

Fill in inhibition at 10 min, 10 µM for record COc1cc2nc(-c3ccc(C)o3)cc(NCC3CCN(c4ncc(C(=O)NO)cn4)CC3)c2cc1OC 5.6

====

Biological target: DNA (cytosine-5)-methyltransferase 1 (Homo sapiens, UniProt P26358)
Sequence (P26358 whole entry): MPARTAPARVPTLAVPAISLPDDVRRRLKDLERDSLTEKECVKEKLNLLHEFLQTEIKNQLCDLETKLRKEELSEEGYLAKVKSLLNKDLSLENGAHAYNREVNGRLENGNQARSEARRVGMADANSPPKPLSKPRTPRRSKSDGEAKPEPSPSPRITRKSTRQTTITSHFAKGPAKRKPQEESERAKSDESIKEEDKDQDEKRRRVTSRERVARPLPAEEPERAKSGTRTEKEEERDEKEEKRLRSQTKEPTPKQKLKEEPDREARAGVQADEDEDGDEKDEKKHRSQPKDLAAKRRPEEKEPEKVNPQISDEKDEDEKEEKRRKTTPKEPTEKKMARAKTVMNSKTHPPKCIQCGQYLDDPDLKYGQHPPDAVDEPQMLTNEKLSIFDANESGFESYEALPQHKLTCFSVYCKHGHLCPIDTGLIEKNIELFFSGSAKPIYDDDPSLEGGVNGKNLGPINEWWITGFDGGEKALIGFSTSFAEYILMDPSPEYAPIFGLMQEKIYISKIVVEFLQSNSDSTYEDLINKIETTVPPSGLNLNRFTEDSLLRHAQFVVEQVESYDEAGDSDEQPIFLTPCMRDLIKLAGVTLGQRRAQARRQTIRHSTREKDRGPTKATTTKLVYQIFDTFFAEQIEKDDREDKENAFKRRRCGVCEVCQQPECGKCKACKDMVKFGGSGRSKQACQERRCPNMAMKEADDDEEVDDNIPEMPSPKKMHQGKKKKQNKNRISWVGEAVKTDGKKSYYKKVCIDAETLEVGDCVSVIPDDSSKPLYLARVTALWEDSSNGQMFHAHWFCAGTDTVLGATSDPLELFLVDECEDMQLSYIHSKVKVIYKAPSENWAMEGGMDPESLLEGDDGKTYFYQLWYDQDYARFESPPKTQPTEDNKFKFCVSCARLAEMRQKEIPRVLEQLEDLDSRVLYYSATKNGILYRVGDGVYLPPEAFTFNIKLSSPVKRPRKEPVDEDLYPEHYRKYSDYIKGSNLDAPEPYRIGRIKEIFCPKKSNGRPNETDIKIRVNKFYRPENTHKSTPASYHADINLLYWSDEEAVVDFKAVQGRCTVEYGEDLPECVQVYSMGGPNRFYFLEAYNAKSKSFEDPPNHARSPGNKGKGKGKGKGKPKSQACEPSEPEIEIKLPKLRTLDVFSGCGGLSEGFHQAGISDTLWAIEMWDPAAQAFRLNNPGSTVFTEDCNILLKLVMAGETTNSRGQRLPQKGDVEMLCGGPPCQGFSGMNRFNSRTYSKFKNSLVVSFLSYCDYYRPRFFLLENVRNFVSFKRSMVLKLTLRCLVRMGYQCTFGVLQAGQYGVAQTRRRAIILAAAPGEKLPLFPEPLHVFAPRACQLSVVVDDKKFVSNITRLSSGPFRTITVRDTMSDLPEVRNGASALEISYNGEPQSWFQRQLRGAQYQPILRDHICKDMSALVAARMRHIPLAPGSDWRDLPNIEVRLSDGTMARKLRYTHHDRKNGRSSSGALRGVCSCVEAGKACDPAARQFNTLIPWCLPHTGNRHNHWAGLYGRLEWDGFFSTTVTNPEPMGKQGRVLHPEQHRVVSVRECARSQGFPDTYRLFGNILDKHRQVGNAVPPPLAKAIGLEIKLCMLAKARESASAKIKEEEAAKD
pIC50: −log10 of the molar value.
Everything with pIC50 lower than 6 is Not fulfilled; everything else, including exactly 6, is Fulfilled.

Check if pIC50 >= 6 (inclusive). Item: COc1cc2nc(-c3ccc(C)o3)cc(NCC3C4CCC3CN(c3ncc(C(=O)NO)cn3)C4)c2cc1OC (stereo not given) Not fulfilled

Check if pIC50 >= 6 (inclusive). Item: COc1cc2nc(-c3ccc(C)o3)cc(NCC3CCN(Cc4ccc(C(=O)NO)cc4)CC3)c2cc1OC Fulfilled

Check if pIC50 >= 6 (inclusive). Item: COc1cc2c(NC3CCN(c4ncc(C(=O)NO)cn4)CC3)cc(C)nc2cc1OCCCN1CCCC1 Not fulfilled

Check if pIC50 >= 6 (inclusive). Item: COc1cc2c(NCC3CCC(C(=O)NO)CC3)cc(-c3ccc(C)o3)nc2cc1OCCCN1CCCC1 (stereo not given) Fulfilled

Check if pIC50 >= 6 (inclusive). Item: COc1cc2c(NCc3ccc([C@H]4CC[C@H](C(=O)NO)CC4)cc3)cc(-c3ccc(C)o3)nc2cc1OCCCN1CCCC1 Not fulfilled

Check if pIC50 >= 6 (inclusive). Item: COc1cc2nc(-c3ccc(C)o3)cc(NCC3CCC(C(=O)NO)CC3)c2cc1OC (stereo not given) Not fulfilled

====

Each item that follows carries a reported pIC50.
Target: Protein deacetylase HDAC6 (Homo sapiens)
Sequence (Q9UBN7 whole entry): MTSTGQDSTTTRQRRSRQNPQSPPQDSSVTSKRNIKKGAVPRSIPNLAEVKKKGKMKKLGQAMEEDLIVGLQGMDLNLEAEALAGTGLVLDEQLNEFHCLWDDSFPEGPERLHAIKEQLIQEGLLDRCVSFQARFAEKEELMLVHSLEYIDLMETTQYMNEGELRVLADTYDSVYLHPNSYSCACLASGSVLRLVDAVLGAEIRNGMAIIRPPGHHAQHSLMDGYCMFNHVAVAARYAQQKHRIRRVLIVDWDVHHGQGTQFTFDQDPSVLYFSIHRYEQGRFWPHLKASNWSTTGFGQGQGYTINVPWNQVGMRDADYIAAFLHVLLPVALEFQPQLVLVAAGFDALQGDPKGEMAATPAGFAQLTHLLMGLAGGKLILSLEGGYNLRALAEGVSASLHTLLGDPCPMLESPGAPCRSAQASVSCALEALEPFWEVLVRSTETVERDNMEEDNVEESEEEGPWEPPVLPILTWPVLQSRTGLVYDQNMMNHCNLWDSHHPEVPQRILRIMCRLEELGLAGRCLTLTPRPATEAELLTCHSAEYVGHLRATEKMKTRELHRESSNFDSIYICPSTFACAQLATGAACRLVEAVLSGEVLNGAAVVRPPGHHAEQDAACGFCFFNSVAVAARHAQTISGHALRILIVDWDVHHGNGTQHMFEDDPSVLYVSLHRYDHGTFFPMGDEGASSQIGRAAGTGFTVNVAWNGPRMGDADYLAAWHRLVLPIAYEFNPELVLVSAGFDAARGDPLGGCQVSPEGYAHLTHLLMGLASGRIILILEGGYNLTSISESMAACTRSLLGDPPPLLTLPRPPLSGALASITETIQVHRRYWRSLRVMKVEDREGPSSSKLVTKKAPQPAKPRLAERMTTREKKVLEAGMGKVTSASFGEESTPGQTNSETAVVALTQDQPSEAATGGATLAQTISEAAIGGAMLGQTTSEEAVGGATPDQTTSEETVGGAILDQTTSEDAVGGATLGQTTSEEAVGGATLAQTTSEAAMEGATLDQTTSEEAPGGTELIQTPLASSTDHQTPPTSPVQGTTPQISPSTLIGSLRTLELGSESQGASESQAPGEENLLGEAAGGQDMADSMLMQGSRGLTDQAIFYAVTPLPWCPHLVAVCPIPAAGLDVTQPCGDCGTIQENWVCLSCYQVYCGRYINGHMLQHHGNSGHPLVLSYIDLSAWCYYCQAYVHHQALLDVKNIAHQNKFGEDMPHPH
The scale used: pIC50 is minus the common logarithm of the concentration in molar units.

Worked examples follow.
MOLECULE	pIC50
COc1cc2nc(-c3ccc(C)o3)cc(NCC3C4CCC3CN(c3ncc(C(=O)NO)cn3)C4)c2cc1OC (centres undefined)	6.62
COc1cc2nc(-c3ccc(C)o3)cc(NCC3CCC(C(=O)NO)CC3)c2cc1OC (centres undefined)	7.39
COc1cc2nc(-c3ccc(C)o3)cc(NCc3ccc(C(=O)NO)cc3)c2cc1OC	7.66
COc1cc2nc(-c3ccc(C)o3)cc(NC3CCN(c4ncc(C(=O)NO)cn4)CC3)c2cc1OC	6.46

State recorded pIC50 with Protein deacetylase HDAC6 (Homo sapiens), entry COc1cc2nc(-c3ccc(C)o3)cc(NCc3ccc(C(=O)NO)cn3)c2cc1OC , no comment. 6.69

State recorded pIC50 with Protein deacetylase HDAC6 (Homo sapiens), entry COc1cc2c(NCC3CCN(c4ncc(C(=O)NO)cn4)CC3)cc(-c3ccc(C)o3)nc2cc1OCC1CCNCC1 , no comment. 6.45
